target.of.assay: c-Met (Homo sapiens, UniProt P08581)
Construct: endogenous in cells
Sequence (P08581 25-1390): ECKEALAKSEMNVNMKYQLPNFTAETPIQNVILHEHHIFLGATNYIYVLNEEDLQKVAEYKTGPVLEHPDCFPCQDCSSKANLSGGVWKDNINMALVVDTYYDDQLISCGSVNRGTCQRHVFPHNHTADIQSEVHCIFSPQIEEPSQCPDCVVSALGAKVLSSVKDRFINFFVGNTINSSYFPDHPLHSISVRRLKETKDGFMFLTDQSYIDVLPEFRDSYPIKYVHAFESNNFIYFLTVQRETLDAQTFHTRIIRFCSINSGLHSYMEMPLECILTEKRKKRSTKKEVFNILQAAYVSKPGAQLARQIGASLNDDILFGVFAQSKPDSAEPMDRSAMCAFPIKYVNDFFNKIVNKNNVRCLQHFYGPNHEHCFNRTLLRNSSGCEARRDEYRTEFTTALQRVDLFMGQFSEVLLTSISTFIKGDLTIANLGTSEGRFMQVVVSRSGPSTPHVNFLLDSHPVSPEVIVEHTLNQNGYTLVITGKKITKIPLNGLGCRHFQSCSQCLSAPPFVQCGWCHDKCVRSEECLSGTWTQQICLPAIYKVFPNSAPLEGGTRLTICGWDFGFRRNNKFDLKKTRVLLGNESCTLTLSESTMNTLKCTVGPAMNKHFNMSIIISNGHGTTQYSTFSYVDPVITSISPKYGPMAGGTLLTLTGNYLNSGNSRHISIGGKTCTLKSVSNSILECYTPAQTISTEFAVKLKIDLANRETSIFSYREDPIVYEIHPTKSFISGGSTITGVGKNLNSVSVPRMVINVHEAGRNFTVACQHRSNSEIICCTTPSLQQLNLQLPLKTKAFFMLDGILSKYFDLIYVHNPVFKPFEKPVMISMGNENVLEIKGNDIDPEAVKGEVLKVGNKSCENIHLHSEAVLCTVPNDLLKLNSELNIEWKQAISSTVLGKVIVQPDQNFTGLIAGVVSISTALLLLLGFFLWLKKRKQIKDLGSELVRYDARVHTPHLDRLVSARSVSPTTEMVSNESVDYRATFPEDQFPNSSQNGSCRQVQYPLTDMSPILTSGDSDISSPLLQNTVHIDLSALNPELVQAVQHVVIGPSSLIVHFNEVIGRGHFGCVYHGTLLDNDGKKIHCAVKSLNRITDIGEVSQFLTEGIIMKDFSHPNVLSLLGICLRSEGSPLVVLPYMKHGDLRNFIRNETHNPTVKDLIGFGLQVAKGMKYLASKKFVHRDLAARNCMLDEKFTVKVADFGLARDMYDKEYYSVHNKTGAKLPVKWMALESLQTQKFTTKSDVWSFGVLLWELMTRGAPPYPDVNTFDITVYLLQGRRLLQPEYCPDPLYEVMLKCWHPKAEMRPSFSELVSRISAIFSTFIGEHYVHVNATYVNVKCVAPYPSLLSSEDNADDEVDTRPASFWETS
test.description: Inhibition of c-Met phosphorylation in MKN45 cells (direct ELISA)
applied.conditions: 3 h treatment, read-out: CMET ELISA IN MKN45 IC50
pIC50: −log10 of the molar value.
Each record here notes measured pIC50.

Recorded pIC50, per entry:
molecule: CN(C)CCOC(=O)N1CC=C(c2cc3nccc(Oc4ccc(NC(=S)NC(=O)Cc5ccccc5)cc4F)c3s2)CC1
pIC50: > 6.60
--
molecule: CS(=O)(=O)CCNCc1cccc(-c2cc3nccc(Oc4ccc(NC(=S)NC(=O)Cc5ccccc5)cc4F)c3s2)c1
pIC50: > 6.60
--
molecule: COCCNCc1cnc(-c2cc3nccc(Oc4ccc(NC(=O)C5(C(=O)Nc6ccccc6)CC5)cc4F)c3s2)n1C
pIC50: > 6.60
--
molecule: CN(C)CCOC(=O)N1CC=C(c2cc3nccc(Oc4ccc(NC(=O)CC(=O)N(C)c5ccccc5)cc4F)c3s2)CC1
pIC50: > 6.60
--
molecule: CS(=O)(=O)CCNCc1ccc(-c2cc3nccc(Oc4ccc(NC(=O)C5(C(=O)Nc6ccccc6)CC5)cc4F)c3s2)cc1 [drawing 340]
pIC50: > 6.60

# input // query pIC50 value for entry `COCCNCc1cccc(-c2cc3nccc(Oc4ccc(NC(=O)C5(C(=O)Nc6ccccc6)CC5)cc4F)c3s2)c1`
# output > 6.60

# input // query pIC50 value for entry `COCCNCc1cccc(-c2cc3nccc(Oc4ccc(NC(=S)NC(=O)Cc5ccccc5)cc4F)c3s2)n1`
# output > 6.60
